TGT: FSHR (Homo sapiens)
Sequence (P23945 18-695): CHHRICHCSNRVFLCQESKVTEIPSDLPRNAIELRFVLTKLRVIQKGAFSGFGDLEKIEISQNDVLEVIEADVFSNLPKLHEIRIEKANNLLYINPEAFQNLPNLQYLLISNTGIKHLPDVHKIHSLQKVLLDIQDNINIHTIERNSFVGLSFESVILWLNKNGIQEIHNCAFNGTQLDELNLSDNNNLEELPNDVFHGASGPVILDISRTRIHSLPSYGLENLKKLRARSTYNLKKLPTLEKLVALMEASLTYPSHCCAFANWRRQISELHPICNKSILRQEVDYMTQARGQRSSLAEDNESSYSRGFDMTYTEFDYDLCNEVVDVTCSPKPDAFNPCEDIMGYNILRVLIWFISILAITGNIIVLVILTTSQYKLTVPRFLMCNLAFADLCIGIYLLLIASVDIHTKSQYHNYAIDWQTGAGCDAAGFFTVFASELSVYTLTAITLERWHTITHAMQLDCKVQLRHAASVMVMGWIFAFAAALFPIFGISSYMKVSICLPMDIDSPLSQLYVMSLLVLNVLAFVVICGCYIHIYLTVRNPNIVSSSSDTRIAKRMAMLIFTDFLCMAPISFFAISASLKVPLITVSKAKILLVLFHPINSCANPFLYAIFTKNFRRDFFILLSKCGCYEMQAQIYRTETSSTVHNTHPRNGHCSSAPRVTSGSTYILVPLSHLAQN
TEST METHOD NOTES: EC50 of Cyclic AMP Production in CHO FSHR Cells+EC20 FSH (Assay A)
SETTINGS: cAMP HTRF
pEC50: −log10 of the molar value.
Below is a list of entries, each paired with its recorded pEC50 value.

Reference set, count: 3
{"MOLECULE": "Cc1ccccc1N1CCN(c2cc(Cl)c(C(=O)NCCC(C)(C)C(=O)O)cc2NC(=O)c2coc(C3CC3)n2)CC1", "TGT": "FSHR (Homo sapiens)", "pEC50": "6.00 to 7.00"}
{"MOLECULE": "COC(=O)[C@@H]1CCC[C@H](NC(=O)c2cc(NC(=O)c3coc(C4CC4)n3)c(N3CCN(c4ccccc4C)CC3)cc2F)C1", "TGT": "FSHR (Homo sapiens)", "pEC50": "6.00 to 7.00"}
{"MOLECULE": "CCOc1cc(N2CCN(c3ccccc3C)CC2)c(NC(=O)c2ccco2)cc1C(=O)NCCCN1CCCC1=O", "TGT": "FSHR (Homo sapiens)", "pEC50": "5.30 to 6.00"}

Now for another entry.
Ask: For the compound shown here, `Cc1ccccc1N1CCN(c2cc(Cl)c(C(=O)NCCCN3CCCC3=O)cc2NC(=O)c2coc(C3CC3)n2)CC1` , give the reported pEC50.
Reply: > 7.00
